Data credit: PubChem BioAssay (NCI)

- Tested on: SK-MEL-2 melanoma
- assayComment: NCI tumour cell line growth inhibition, 48 h; in the data active = GI50 below about 0.43 µM; inactive = the rest
Permitted responses: active, inactive

Please indicate how the test categorized `CC(C)C[C@H](NC(=O)[C@@H](Cc1ccccc1)n1ccc(Nc2ccccc2)cc1=O)B(O)O` .
active

Please indicate how the test categorized `Cc1cc(O)ccc1C1(c2ccc(O)cc2C)OC(=O)c2ccccc21` .
inactive

Please indicate how the test categorized `C[C@@]12CC[C@@H](O)C[C@@H]1CC[C@H]1[C@H]2CC[C@@]2(C)[C@H](c3ccc(=O)oc3)CC[C@@]12O` .
active

Please indicate how the test categorized COC(=O)C1C(C(=O)O)C2(c3ccccc3)C(=O)C1(c1ccccc1)C(c1ccc(OC)cc1)=C2c1ccc(OC)cc1 (configuration not stated) .
inactive

Please indicate how the test categorized `CC(=O)[O-].CC(=O)[O-].O=C([CH-]C(=O)c1ccccc1)c1ccccc1.[Nd+3].[OH3+]` .
inactive

Please indicate how the test categorized `CCOC(=O)c1c(-c2ccccc2)n2c(=O)cc(C)c3c(O)c(O)cc1c32` .
inactive

Please indicate how the test categorized `CCN1CCN(Cc2ccc(Nc3ncc(F)c(-c4cc(F)c5nc(C)n(C(C)C)c5c4)n3)nc2)CC1` .
inactive

###

Would you kindly list TGI for each of these molecules?
- Test system: NCI-H460 lung
- assayComment: NCI tumour cell line growth inhibition, 48 h

Item COc1cc(/C=C2\CC3C4CCC5=CC(=O)CC[C@]5(C)C4CC[C@]3(C)C2=O)ccc1OCCN1CCCC1 (stereo not given in full) has what recorded TGI?
> 37.5 µM

Item CCn1c2ccccc2c2ccc(C3C4C(=O)N(c5cccc6ccccc56)C(=O)C4ON3C(C(N)=O)c3ccccc3)cc21 (stereo not given) has what recorded TGI?
> 25 µM

Item `CC(C)(C)OC(=O)N(O)CCCn1cnc2c(NC3CC3)ncnc21` has what recorded TGI?
> 100 µM

Item `CC1=CC2(C)C=C[C@@H]1C(=O)[C@@]1(C)CC[C@@](O)(C(C)C)[C@H]1CC2` has what recorded TGI?
32.5 µM

Item `O=P1(Oc2ccc(Cl)cc2Cl)Oc2cc3ccccc3cc2O1` has what recorded TGI?
> 100 µM

###

- Tested on: NCI-H460 lung
- assayComment: NCI tumour cell line growth inhibition, 48 h
Would you kindly list TGI for each of these compounds?

Provide the documented TGI with NCI-H460 lung as the system for `Nc1c(S(=O)(=O)O)cc(S(=O)(=O)O)c2ccc(N=Nc3ccccc3)c(O)c12`
> 100 µM

Provide the documented TGI with NCI-H460 lung as the system for `CC1(C)N=C(N)N=C(N)N1c1ccc(OCC(=O)Nc2ccc(S(=O)(=O)F)cc2Cl)c(Cl)c1`
> 100 µM

Provide the documented TGI with NCI-H460 lung as the system for Cc1cc(C)c(NS(=O)c2ccc(Cl)cc2)c(C)c1 (configuration not stated)
> 100 µM

Provide the documented TGI with NCI-H460 lung as the system for CC1CC(C)(O)C2C3(C)CCCC2(COC3=O)C12CCC1(CCOC1=O)O2 (configuration not stated)
> 250 µM

Provide the documented TGI with NCI-H460 lung as the system for COc1ccc(C2=C(c3ccccc3)C(=O)N3CCCC3C2)cc1 (configuration not stated)
> 62.9 µM

Provide the documented TGI with NCI-H460 lung as the system for `CCCCC/C=C\C=C\CCCCCCCCC(=O)OC`
> 100 µM

Provide the documented TGI with NCI-H460 lung as the system for `O=C(O)C1=Cc2cccc3cccc(c23)C1=O`
> 100 µM

Provide the documented TGI with NCI-H460 lung as the system for CCOC(=O)C1=C(C)NC2SC(=O)/C(=C\c3cccc(Cl)c3)N2C1c1ccccc1 (configuration not stated)
> 100 µM

Provide the documented TGI with NCI-H460 lung as the system for O=C(O)CN1C(=O)OC(c2ccccc2)C1=O (configuration not stated)
> 100 µM

Provide the documented TGI with NCI-H460 lung as the system for COP12(OC)NC(=O)OC1(C(F)(F)F)c1ccccc1O2 (configuration not stated)
> 100 µM

Provide the documented TGI with NCI-H460 lung as the system for `CCOC(=O)/C=C(/C(=O)OCC)n1ccc(=O)n(Cc2cn(CCCCOC(C)=O)nn2)c1=O`
> 100 µM

Provide the documented TGI with NCI-H460 lung as the system for `Cc1n[nH]c(=O)n1/N=C/c1ccco1`
> 100 µM
